Catalogue of pIC50 readings, one per entry.
Target: CDK17/Cyclin Y (Homo sapiens, UniProt Q00537)
Sequence (Q00537 whole entry): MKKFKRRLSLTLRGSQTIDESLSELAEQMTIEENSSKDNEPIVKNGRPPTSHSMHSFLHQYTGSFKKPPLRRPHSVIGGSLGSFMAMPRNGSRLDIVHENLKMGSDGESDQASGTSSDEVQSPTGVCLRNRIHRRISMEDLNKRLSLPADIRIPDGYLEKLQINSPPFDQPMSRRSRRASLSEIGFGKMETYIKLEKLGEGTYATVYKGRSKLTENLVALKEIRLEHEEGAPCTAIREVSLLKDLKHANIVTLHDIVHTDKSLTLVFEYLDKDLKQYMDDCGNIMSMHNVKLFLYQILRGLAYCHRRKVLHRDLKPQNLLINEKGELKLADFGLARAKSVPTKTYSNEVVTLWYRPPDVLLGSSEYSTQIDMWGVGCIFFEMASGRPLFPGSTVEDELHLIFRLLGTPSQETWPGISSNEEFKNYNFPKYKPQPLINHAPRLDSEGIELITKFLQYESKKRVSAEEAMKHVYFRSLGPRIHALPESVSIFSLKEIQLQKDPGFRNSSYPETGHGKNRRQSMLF
Sequence (Q8ND76 whole entry partner): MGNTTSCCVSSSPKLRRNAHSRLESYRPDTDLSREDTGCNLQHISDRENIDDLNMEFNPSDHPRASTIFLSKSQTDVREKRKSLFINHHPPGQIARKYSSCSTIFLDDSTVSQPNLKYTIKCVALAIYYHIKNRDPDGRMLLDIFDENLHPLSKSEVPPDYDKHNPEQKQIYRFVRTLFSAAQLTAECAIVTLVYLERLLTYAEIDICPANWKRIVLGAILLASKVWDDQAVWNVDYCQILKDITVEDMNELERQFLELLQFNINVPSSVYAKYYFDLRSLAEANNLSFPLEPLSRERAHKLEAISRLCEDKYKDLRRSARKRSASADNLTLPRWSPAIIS
Test: NanoBRET live-cell target engagement, CDK17-NanoLuc/Cyclin Y in HEK-293
Format: binding
Settings: CDK17/Y; average (± SEM where n=3); read-out: IC50
pIC50: −log10 of the molar value.
value.kind: pIC50

compound="COc1ccc(F)cc1-c1cc(NC(=O)C2CCCNC2)ncc1Cl (stereo not shown)" value_kind=pIC50 observed_measurement=7.05
compound=CNc1nc(C)c(-c2nc(Nc3cccc(S(N)(=O)=O)c3)ncc2F)s1 value_kind=pIC50 observed_measurement=8.08
compound=CN1CCN(c2ccc(Nc3ncc4cc(C#N)c(=O)n(C5CCCC5)c4n3)cc2)CC1 value_kind=pIC50 observed_measurement=7.40
compound="CC(C)c1cnn2c(NCc3ccccc3-n3cccn3)nc(OC3CCCNC3)nc12 (stereo not shown)" value_kind=pIC50 observed_measurement=6.70
compound=CS(=O)(=O)N1CCC(NC(=O)c2[nH]ncc2NC(=O)c2c(Cl)cccc2Cl)CC1 value_kind=pIC50 observed_measurement=7.96
compound=CN1CCN(Cc2ccc(NC(=O)Nc3ccc(Oc4ccnc(N)n4)cc3)cc2C(F)(F)F)CC1 value_kind=pIC50 observed_measurement=6.72
compound=CC(C)c1c2cc(-c3ccnc(N[C@H]4CC[C@H](NC5CCOCC5)CC4)n3)ccc2nn1C value_kind=pIC50 observed_measurement=7.39

---

Target: CDK1/Cyclin E1 (Homo sapiens, UniProt P06493)
Sequence (P06493 whole entry): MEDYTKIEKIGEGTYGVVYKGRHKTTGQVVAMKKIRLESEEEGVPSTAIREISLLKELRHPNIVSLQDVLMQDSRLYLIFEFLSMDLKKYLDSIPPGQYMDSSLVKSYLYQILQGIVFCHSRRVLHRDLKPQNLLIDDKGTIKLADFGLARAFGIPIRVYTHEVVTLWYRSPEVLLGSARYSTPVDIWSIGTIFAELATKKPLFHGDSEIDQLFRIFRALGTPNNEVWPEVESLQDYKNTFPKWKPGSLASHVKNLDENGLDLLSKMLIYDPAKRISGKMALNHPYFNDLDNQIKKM
Sequence (P24864 whole entry partner): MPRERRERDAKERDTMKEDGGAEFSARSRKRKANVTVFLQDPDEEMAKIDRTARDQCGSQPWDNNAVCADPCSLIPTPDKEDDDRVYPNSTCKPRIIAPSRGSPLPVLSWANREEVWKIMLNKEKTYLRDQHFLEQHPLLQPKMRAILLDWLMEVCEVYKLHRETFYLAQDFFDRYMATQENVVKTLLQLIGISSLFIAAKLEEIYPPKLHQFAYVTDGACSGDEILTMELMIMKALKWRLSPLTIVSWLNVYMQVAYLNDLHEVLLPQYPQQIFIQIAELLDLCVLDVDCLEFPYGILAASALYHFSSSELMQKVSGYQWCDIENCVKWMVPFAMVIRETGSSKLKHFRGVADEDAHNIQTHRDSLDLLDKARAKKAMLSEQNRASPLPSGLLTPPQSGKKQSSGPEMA
Assay: NanoBRET live-cell target engagement, CDK1-NanoLuc/Cyclin E1 in HEK-293
Format: binding
Details: CDK1/E1; experiment 1; read-out: IC50
value.kind: IC50 (µM)

compound=CS(=O)(=O)N1CCC(NC(=O)c2[nH]ncc2NC(=O)c2c(Cl)cccc2Cl)CC1 value_kind=IC50 unit_abbreviation=µM observed_measurement=0.058
compound="CCn1cnc2c(Nc3cccc(Cl)c3)nc(N[C@@H]3CCCC[C@@H]3N)nc21 [CGP74514A]" value_kind=IC50 unit_abbreviation=µM observed_measurement=0.1
compound="CC(C)c1cnn2c(NCc3ccccc3-n3cccn3)nc(OC3CCCNC3)nc12 (stereo not drawn)" value_kind=IC50 unit_abbreviation=µM observed_measurement=0.07

---

Catalogue of Inhibition at 10µM (%) Replicate 1 readings, one per entry.
Molecular target: CDK3/Cyclin E1 (Homo sapiens, UniProt Q00526)
Sequence (Q00526 whole entry): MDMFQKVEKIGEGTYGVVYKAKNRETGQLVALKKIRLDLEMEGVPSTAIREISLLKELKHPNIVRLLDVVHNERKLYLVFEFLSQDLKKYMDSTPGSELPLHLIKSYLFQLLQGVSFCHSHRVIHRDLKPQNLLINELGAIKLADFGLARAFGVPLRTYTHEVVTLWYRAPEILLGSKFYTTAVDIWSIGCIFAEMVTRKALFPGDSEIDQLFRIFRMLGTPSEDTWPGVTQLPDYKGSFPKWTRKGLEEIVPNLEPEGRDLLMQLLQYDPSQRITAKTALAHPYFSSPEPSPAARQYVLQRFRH
Sequence (P24864 whole entry partner): as the sequence (P24864 whole entry partner) above
Assay: NanoBRET live-cell target engagement, CDK3-NanoLuc/Cyclin E1 in HEK-293
Assay type: binding
Details: CDK3/E1; 10µM
value.kind: Inhibition at 10µM (%) Replicate 1

compound="CNC1CCN(C(=O)c2ccc(Nc3ncc(F)c(-c4cnc(C)n4C(C)C)n3)cc2)C1 (stereo not shown)" observed_measurement=99.1
compound=O=C(Nc1c[nH]nc1-c1ccccn1)c1nn(C2CCNCC2)cc1Cl observed_measurement=4.4
compound=CC(C)c1cnn2c(NCc3ccccc3)cc(N[C@@H](CO)[C@H](O)CO)nc12 observed_measurement=96.7
compound="CCC(CO)Nc1nc(Nc2cccc(-c3ccccn3)c2)c2ncn(C(C)C)c2n1.Cl.O [(R) - DRF053]" observed_measurement=72.1

---

Catalogue of Inhibition at 10µM (%) Average readings, one per entry.
Target: CDK12/Cyclin K (Homo sapiens)
Sequence (Q9NYV4 1-1481 isoform Q9NYV4-2): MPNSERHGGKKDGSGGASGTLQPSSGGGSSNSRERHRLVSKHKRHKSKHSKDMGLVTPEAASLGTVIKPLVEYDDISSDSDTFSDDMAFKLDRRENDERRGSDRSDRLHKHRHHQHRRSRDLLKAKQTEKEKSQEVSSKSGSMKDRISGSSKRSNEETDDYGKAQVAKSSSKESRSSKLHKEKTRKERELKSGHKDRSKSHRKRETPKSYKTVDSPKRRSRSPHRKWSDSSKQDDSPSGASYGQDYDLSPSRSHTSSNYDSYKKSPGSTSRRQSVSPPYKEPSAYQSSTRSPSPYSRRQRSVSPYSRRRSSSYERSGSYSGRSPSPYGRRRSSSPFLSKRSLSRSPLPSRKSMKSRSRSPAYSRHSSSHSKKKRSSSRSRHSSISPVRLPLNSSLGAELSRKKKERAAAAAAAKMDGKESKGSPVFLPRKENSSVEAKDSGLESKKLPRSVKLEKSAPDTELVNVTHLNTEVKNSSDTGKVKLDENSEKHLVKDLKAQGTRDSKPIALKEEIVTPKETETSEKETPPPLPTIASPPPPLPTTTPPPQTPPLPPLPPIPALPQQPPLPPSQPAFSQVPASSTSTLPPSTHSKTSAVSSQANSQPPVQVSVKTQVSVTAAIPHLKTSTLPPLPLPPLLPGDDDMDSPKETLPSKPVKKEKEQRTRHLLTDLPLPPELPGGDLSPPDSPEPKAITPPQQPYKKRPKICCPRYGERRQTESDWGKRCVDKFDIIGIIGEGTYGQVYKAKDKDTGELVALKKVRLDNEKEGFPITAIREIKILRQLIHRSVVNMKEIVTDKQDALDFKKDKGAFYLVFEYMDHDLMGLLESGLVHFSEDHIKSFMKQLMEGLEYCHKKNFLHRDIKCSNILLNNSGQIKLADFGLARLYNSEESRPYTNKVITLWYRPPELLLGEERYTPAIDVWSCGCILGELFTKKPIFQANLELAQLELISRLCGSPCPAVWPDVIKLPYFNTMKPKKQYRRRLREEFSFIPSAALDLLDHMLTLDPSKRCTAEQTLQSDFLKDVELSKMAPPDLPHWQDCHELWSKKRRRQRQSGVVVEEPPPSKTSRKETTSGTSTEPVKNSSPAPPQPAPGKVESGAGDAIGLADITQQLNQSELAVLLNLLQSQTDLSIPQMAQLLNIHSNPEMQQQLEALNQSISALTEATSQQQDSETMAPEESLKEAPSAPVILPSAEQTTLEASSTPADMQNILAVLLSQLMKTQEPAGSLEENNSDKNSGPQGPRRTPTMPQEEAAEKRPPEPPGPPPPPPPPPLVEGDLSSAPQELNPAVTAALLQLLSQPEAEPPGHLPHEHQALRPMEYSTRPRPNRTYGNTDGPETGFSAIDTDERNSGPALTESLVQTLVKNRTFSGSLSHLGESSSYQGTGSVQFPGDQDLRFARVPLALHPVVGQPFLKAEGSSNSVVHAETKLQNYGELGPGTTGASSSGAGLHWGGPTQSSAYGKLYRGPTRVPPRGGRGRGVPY
Sequence (O75909 whole entry partner): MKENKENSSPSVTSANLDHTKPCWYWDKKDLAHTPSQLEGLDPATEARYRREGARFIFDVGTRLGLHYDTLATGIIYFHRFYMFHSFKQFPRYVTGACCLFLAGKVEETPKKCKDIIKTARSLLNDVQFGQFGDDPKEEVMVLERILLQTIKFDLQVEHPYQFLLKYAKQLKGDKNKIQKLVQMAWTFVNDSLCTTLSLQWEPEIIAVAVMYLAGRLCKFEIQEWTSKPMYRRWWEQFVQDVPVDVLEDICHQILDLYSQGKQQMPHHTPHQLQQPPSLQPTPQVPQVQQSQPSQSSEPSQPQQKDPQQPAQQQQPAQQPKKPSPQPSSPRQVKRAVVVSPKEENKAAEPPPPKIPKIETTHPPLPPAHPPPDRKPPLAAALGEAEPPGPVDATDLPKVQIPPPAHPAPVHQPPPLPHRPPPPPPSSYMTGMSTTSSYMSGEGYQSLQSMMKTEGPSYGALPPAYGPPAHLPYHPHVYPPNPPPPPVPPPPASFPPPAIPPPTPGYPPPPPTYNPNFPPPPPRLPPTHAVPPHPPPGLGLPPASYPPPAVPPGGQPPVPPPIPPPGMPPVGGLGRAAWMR
Assay: NanoBRET live-cell target engagement, CDK12-NanoLuc/Cyclin K in HEK-293
Assay type: binding
Conditions: CDK12/K; 10µM; average of replicates
value.kind: Inhibition at 10µM (%) Average

compound="CC(C)c1cnn2c(NCc3ccccc3)cc(N[C@@H](CO)[C@H](O)CO)nc12 [BS-194]" observed_measurement=53.8
compound="CNC1CCN(C(=O)c2ccc(Nc3ncc(F)c(-c4cnc(C)n4C(C)C)n3)cc2)C1 (stereo not shown) [AZD5597]" observed_measurement=43.5
compound="O=C(Nc1c[nH]nc1-c1ccccn1)c1nn(C2CCNCC2)cc1Cl [BDP5290]" observed_measurement=2.1
compound="CCC(CO)Nc1nc(Nc2cccc(-c3ccccn3)c2)c2ncn(C(C)C)c2n1.Cl.O [(R) - DRF053]" observed_measurement=-4.7
